- MEASURED ON: T1, DFNB31_1, Q9P202
- T1 sequence (Q9P202 135-233, limits assumed, looked up): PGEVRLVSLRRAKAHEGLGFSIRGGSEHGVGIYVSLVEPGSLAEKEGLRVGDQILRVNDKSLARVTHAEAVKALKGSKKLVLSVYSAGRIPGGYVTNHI
- TEST METHOD NOTES: holdup assay
- Parameters: key: below the threshold = too weak to quantify, mostly under pKd 3.1 to 4
- CONDITION INFO: plain residues with an end cap or a label only (N-terminal biotin on a linker: ado-ado)
OBSERVED PROPERTY: pKd

[[record]]
binder = "PYSESDDDWC [CACNA1A, O00555]"
observed_value = "below the threshold"

[[record]]
binder = "PSVGSKKTVL [REELD1, A0A1B0GV85]"
observed_value = "below the threshold"

[[record]]
binder = "DFLSTFHIRI [CIB2, O75838]"
observed_value = 3.55

[[record]]
binder = "SLNANEVEWF [RNF130, Q86XS8]"
observed_value = "below the threshold"

[[record]]
binder = "KKMLQRRTLL [OR8G1, Q15617]"
observed_value = "below the threshold"

